- System: A549
- RUN DESCRIPTION: Cytotoxicity against human A549 cells after 48 hrs by SRB assay
- Assay type: functional
- RECORDED CONDITIONS: A549, 48 h
Each entry below carries its reported LC50 (concentration causing 50% net cell kill).
EXPERIMENTAL READOUT: LC50 (concentration causing 50% net cell kill)

* CCCN1CC(=O)N2[C@@H](Cc3c(OC)c(C)c(OC)c(OC)c3[C@@H]2COCc2ccccc2)C1 (relative stereo) | > 21.3 µM
* COc1ccc(C[C@H]2C(=O)N3[C@@H](COCc4ccccc4)c4c(c(OC)c(C)c(OC)c4OC)C[C@H]3[C@@H](OC)N2C(=O)OC(C)(C)C)cc1OC | > 14.1 µM
* COc1ccc(C[C@H]2C(=O)N3[C@@H](COCc4ccccc4)c4c(c(OC)c(C)c(OC)c4OC)C[C@H]3[C@@H](OC)N2C(=O)OC(C)C)cc1OC | > 14.4 µM
* COc1c(C)c(OC)c(OC)c2c1C[C@H]1[C@H](C#N)N3[C@@H](CO)c4c(c(OC)c(C)c(OC)c4OC)C[C@H]3[C@@H]2N1C (relative stereo) | 13.2 µM

----------
- System: HT-29
- RUN DESCRIPTION: Cytotoxicity against human HT-29 cells after 48 hrs by SRB assay
- Assay type: functional
- RECORDED CONDITIONS: HT-29, 48 h
Each entry below carries its reported GI50.
EXPERIMENTAL READOUT: GI50 (µM)

- COc1c(C)c(OC)c(OC)c2c1C[C@H]1[C@@H](OC)N(C(=O)OC(C)C)CC(=O)N1[C@H]2COCc1ccccc1: 0.195
- COc1c(C)c(OC)c(OC)c2c1C[C@H]1[C@@H]3N[C@@H](Cc4ccccc43)C(=O)N1[C@H]2COC(=O)/C=C/c1ccccc1 (relative stereo): 6.22
- COc1c(C)c(OC)c(OC)c2c1C[C@H]1[C@H]3c4ccccc4C[C@@H]([C@H](C#N)N1[C@H]2CO)N3C (relative stereo): 5.17
- COc1c(C)c(OC)c(OC)c2c1C[C@H]1[C@@H]3c4c(c(OC)c(C)c(OC)c4OC)C[C@H](C(=O)N1C2COC(=O)c1cccc2ccccc12)N3C (relative stereo): 6.88
- COc1cc2c(cc1O)CCN[C@]21CS[C@@H]2c3c(OC(C)=O)c(C)c4c(c3[C@H](COC1=O)N1[C@@H]2[C@H]2c3c(cc(C)c(OC)c3O)C[C@@H]([C@@H]1O)N2C)OCO4: 2.47

----------
- Test system: HT-29
- RUN DESCRIPTION: Cytotoxicity against human HT-29 cells after 48 hrs by SRB assay
- Type: functional
- RECORDED CONDITIONS: HT-29, 48 h
EXPERIMENTAL READOUT: GI50

• COc1ccc(C[C@H]2C(=O)N3[C@@H](COCc4ccccc4)c4c(c(OC)c(C)c(OC)c4OC)C[C@H]3[C@@H](OC)N2C(=O)OC(C)C)cc1OC = 12.3 µM
• COc1c(C)c(OC)c(OC)c2c1C[C@H]1N[C@@H]2[C@@H]2Cc3c(OC)c(C)c(OC)c(OC)c3[C@H](COC(=O)c3cccc4ccccc34)N2C1=O = 6.67 µM
• CCCN1CC(=O)N2[C@@H](Cc3c(OC)c(C)c(OC)c(OC)c3[C@@H]2COCc2ccccc2)C1 (relative stereo) = 11.2 µM
• COc1c(C)c(OC)c(OC)c2c1C[C@H]1CN(C(=O)OC(C)C)[C@@H](Cc3ccccc3)C(=O)N1[C@H]2COCc1ccccc1 = 16.3 µM
• COc1c(C)c(OC)c(OC)c2c1C[C@H]1[C@H]3c4ccccc4C[C@@H]([C@H](C#N)N1[C@H]2COC(=O)/C=C/c1cccc(C(F)(F)F)c1)N3C (relative stereo) = 3.25 µM
• COc1c(C)c(OC)c(OC)c2c1C[C@H]1[C@H]3c4ccccc4C[C@@H](C(=O)N1[C@H]2CO)N3C(=O)OC(C)C = 14 µM
